In this section, each of the molecules is paired with its reported Log10GI50.
# Test system: MDA-MB-468
# Format: cell-based, human

| molecule | readout units | reading qualifier | Log10GI50 |
| --- | --- | --- | --- |
| COc1cc(C)c(-c2ccc(OC)c(=O)cc2C)c(OC)c1OC (single isomer, unassigned) [(aR)-6] | Molar | = | -5.97 |
| COc1cc(C)c(-c2ccc(=O)c(OC)cc2C)c(OC)c1OC (single isomer, unassigned) [(aS)-iso-6] | Molar | = | -4.85 |
| COc1cc(C)c(-c2ccc(=O)c(OC)cc2C)c(OC)c1OC (single isomer, unassigned) [(aR)-iso-6] | Molar | > | -4.00 |
| COc1cc(C)c(-c2ccc(OC)c(=O)cc2C)c(OC)c1OC (single isomer, unassigned) [(aS)-6] | Molar | = | -4.20 |

* * *

# Tested on: MDA-MB-231/ATCC
# Assay type: cell-based, human
In this section, each of the molecules is paired with its reported Log10GI50.
value type: Log10GI50

| molecule | data value |
| --- | --- |
| COc1cc(C)c(-c2ccc(=O)c(OC)cc2C)c(OC)c1OC (single isomer, unassigned) [(aS)-iso-6] | -4.63 Molar |
| COc1cc(C)c(-c2ccc(OC)c(=O)cc2C)c(OC)c1OC (single isomer, unassigned) [(aS)-6] | > -4.00 Molar |
| COc1cc(C)c(-c2ccc(=O)c(OC)cc2C)c(OC)c1OC (single isomer, unassigned) [(aR)-iso-6] | > -4.00 Molar |
| COc1cc(C)c(-c2ccc(OC)c(=O)cc2C)c(OC)c1OC (single isomer, unassigned) [(aR)-6] | -5.59 Molar |

* * *

# Tested on: HL-60(TB)
# Format: cell-based, human
value type: Log10TGI

| molecule | data value |
| --- | --- |
| COc1cc(C)c(-c2ccc(OC)c(=O)cc2C)c(OC)c1OC (single isomer, unassigned) [(aR)-6] | -5.10 Molar |
| COc1cc(C)c(-c2ccc(=O)c(OC)cc2C)c(OC)c1OC (single isomer, unassigned) [(aR)-iso-6] | > -4.00 Molar |
| COc1cc(C)c(-c2ccc(OC)c(=O)cc2C)c(OC)c1OC (single isomer, unassigned) [(aS)-6] | > -4.00 Molar |
| COc1cc(C)c(-c2ccc(=O)c(OC)cc2C)c(OC)c1OC (single isomer, unassigned) [(aS)-iso-6] | -4.02 Molar |

* * *

In this section, each of the compounds is paired with its reported Log10TGI.
# Tested on: MDA-MB-435
# Type: cell-based, human

| compound | experimental system | reading qualifier | Log10TGI / Molar |
| --- | --- | --- | --- |
| COc1cc(C)c(-c2ccc(OC)c(=O)cc2C)c(OC)c1OC (single isomer, unassigned) [(aR)-6] | MDA-MB-435 | = | -6.13 |
| COc1cc(C)c(-c2ccc(=O)c(OC)cc2C)c(OC)c1OC (single isomer, unassigned) [(aR)-iso-6] | MDA-MB-435 | > | -4.00 |
| COc1cc(C)c(-c2ccc(=O)c(OC)cc2C)c(OC)c1OC (single isomer, unassigned) [(aS)-iso-6] | MDA-MB-435 | = | -4.81 |
| COc1cc(C)c(-c2ccc(OC)c(=O)cc2C)c(OC)c1OC (single isomer, unassigned) [(aS)-6] | MDA-MB-435 | > | -4.00 |
